Examples of compounds with documented melting point follow.

Example results:
*Q* Suppose we examine the compound "COc1cccc(C=NNC(=O)Cn2cnc3scc(-c4cccs4)c3c2=O)c1OC" ; what melting point value has been reported?
*A* 248 to 250 °C

*Q* Suppose we examine the compound "NNC(=O)Cn1cnc2scc(-c3cccs3)c2c1=O" ; what melting point value has been reported?
*A* 205 to 207 °C

*Q* Suppose we examine the compound O=C(Cn1cnc2scc(-c3cccs3)c2c1=O)NN1C(=O)CSC1c1ccc(Cl)cc1 (stereo not shown) ; what melting point value has been reported?
*A* 175 to 177 °C

Could you now look at the following compound, please?
*Q* Suppose we examine the compound "O=C(Cn1cnc2scc(-c3cccs3)c2c1=O)NN=Cc1ccc(Cl)cc1" ; what melting point value has been reported?
*A* 250 to 252 °C

====

test: Average animal weight in MCF-7 mouse xenograft model; type: in vivo; settings: nude mice with MCF-7 xenograft, i.p., day 6
MEASUREMENT LABEL: Average Weight of Animals in Grams after Days 6 (Grams)

*Q* Suppose we examine the compound "O=c1oc(Cn2cnc3scc(-c4cccs4)c3c2=O)nc2ccccc12" ; what Average Weight of Animals in Grams after Days 6 value has been reported?
*A* 22.8

*Q* Suppose we examine the compound "CC(=O)NNC(=O)Cn1cnc2scc(-c3cccs3)c2c1=O" ; what Average Weight of Animals in Grams after Days 6 value has been reported?
*A* 25.4

*Q* Suppose we examine the compound "O=C(Cn1cnc2scc(-c3cccs3)c2c1=O)NN1C(=O)CSC1=Nc1ccccc1" ; what Average Weight of Animals in Grams after Days 6 value has been reported?
*A* 26.5

*Q* Suppose we examine the compound COc1cccc(C2SCC(=O)N2NC(=O)Cn2cnc3scc(-c4cccs4)c3c2=O)c1OC (stereo not shown) ; what Average Weight of Animals in Grams after Days 6 value has been reported?
*A* 25.2

====

assay: Average animal weight in MCF-7 mouse xenograft model; format: in vivo; details: nude mice with MCF-7 xenograft, i.p., day 8
MEASUREMENT LABEL: Average Weight of Animals in Grams after Days 8 (Grams)

*Q* Suppose we examine the compound "CC(=O)NNC(=O)Cn1cnc2scc(-c3cccs3)c2c1=O" ; what Average Weight of Animals in Grams after Days 8 value has been reported?
*A* 25.4

*Q* Suppose we examine the compound "O=c1oc(Cn2cnc3scc(-c4cccs4)c3c2=O)nc2ccccc12" ; what Average Weight of Animals in Grams after Days 8 value has been reported?
*A* 22.8

*Q* Suppose we examine the compound O=C(Cn1cnc2scc(-c3cccs3)c2c1=O)NN1C(=O)CSC1c1ccc(Cl)cc1 (stereo not drawn) ; what Average Weight of Animals in Grams after Days 8 value has been reported?
*A* 24.0

*Q* Suppose we examine the compound "O=C(Cn1cnc2scc(-c3cccs3)c2c1=O)NN=Cc1ccc(Cl)cc1" ; what Average Weight of Animals in Grams after Days 8 value has been reported?
*A* 27.2

*Q* Suppose we examine the compound "Nc1cc(O)cc(=O)n1NC(=O)Cn1cnc2scc(-c3cccs3)c2c1=O" ; what Average Weight of Animals in Grams after Days 8 value has been reported?
*A* 26.1

*Q* Suppose we examine the compound "O=C(Cn1cnc2scc(-c3cccs3)c2c1=O)NNC(=S)Nc1ccccc1" ; what Average Weight of Animals in Grams after Days 8 value has been reported?
*A* 24.8

*Q* Suppose we examine the compound "Cc1cc(=O)n(C(=O)Cn2cnc3scc(-c4cccs4)c3c2=O)[nH]1" ; what Average Weight of Animals in Grams after Days 8 value has been reported?
*A* 27.3

*Q* Suppose we examine the compound NC1=CC(N)N(NC(=O)Cn2cnc3scc(-c4cccs4)c3c2=O)C=C1 (stereo not drawn) ; what Average Weight of Animals in Grams after Days 8 value has been reported?
*A* 25.8

*Q* Suppose we examine the compound COc1cccc(C2SCC(=O)N2NC(=O)Cn2cnc3scc(-c4cccs4)c3c2=O)c1OC (stereo not drawn) ; what Average Weight of Animals in Grams after Days 8 value has been reported?
*A* 25.2

====

test: Average animal weight in MCF-7 mouse xenograft model; assay type: in vivo; conditions: nude mice with MCF-7 xenograft, i.p., day 4
MEASUREMENT LABEL: Average Weight of Animals in Grams after Days 4 (Grams)

*Q* Suppose we examine the compound O=C(Cn1cnc2scc(-c3cccs3)c2c1=O)NN1C(=O)CSC1c1ccc(Cl)cc1 (stereo not shown) ; what Average Weight of Animals in Grams after Days 4 value has been reported?
*A* 24.0

*Q* Suppose we examine the compound "O=C(Cn1cnc2scc(-c3cccs3)c2c1=O)NN1C(=O)CSC1=Nc1ccccc1" ; what Average Weight of Animals in Grams after Days 4 value has been reported?
*A* 26.6

*Q* Suppose we examine the compound NC1=CC(N)N(NC(=O)Cn2cnc3scc(-c4cccs4)c3c2=O)C=C1 (stereo not shown) ; what Average Weight of Animals in Grams after Days 4 value has been reported?
*A* 26.1

*Q* Suppose we examine the compound "CCOC(=O)Cn1cnc2scc(-c3cccs3)c2c1=O" ; what Average Weight of Animals in Grams after Days 4 value has been reported?
*A* 28

*Q* Suppose we examine the compound COc1cccc(C2SCC(=O)N2NC(=O)Cn2cnc3scc(-c4cccs4)c3c2=O)c1OC (stereo not shown) ; what Average Weight of Animals in Grams after Days 4 value has been reported?
*A* 25.2

*Q* Suppose we examine the compound "O=c1oc(Cn2cnc3scc(-c4cccs4)c3c2=O)nc2ccccc12" ; what Average Weight of Animals in Grams after Days 4 value has been reported?
*A* 22.9

*Q* Suppose we examine the compound "Cc1cc(=O)n(C(=O)Cn2cnc3scc(-c4cccs4)c3c2=O)[nH]1" ; what Average Weight of Animals in Grams after Days 4 value has been reported?
*A* 27.4

*Q* Suppose we examine the compound "NNC(=O)Cn1cnc2scc(-c3cccs3)c2c1=O" ; what Average Weight of Animals in Grams after Days 4 value has been reported?
*A* 24.1

*Q* Suppose we examine the compound "Nc1cc(O)cc(=O)n1NC(=O)Cn1cnc2scc(-c3cccs3)c2c1=O" ; what Average Weight of Animals in Grams after Days 4 value has been reported?
*A* 26.3

*Q* Suppose we examine the compound "O=C(Cn1cnc2scc(-c3cccs3)c2c1=O)NNC(=S)Nc1ccccc1" ; what Average Weight of Animals in Grams after Days 4 value has been reported?
*A* 24.9

*Q* Suppose we examine the compound "O=C(Cn1cnc2scc(-c3cccs3)c2c1=O)NN=Cc1ccc(Cl)cc1" ; what Average Weight of Animals in Grams after Days 4 value has been reported?
*A* 27.2

*Q* Suppose we examine the compound "CC(=O)NNC(=O)Cn1cnc2scc(-c3cccs3)c2c1=O" ; what Average Weight of Animals in Grams after Days 4 value has been reported?
*A* 25.4

*Q* Suppose we examine the compound "COc1cccc(C=NNC(=O)Cn2cnc3scc(-c4cccs4)c3c2=O)c1OC" ; what Average Weight of Animals in Grams after Days 4 value has been reported?
*A* 23.6

====

Test: Average animal weight in MCF-7 mouse xenograft model
Type: in vivo
Conditions: nude mice with MCF-7 xenograft, i.p., day 10
Experimental: “In this work, MCF-7 mouse xenograft model was used. The animal protocol was approved by the Institutional Animal Use Ethics and Care Committee of the University of Alabama at Birmingham (50-01-05-08B). […] During the experiment, animals were checked periodically and the percentages of tumor growth, as well as animal weights, were recorded. Every 48 h, the size of the tumor was recorded by measuring two perpendicular diameters of the tumor and tumor volume was calculated according to Wang et al. [46]”. […]
MEASUREMENT LABEL: Average Weight of Animals in Grams after Days 10 (Grams)

*Q* Suppose we examine the molecule "CC(=O)NNC(=O)Cn1cnc2scc(-c3cccs3)c2c1=O" ; what Average Weight of Animals in Grams after Days 10 value has been reported?
*A* 25.3

*Q* Suppose we examine the molecule COc1cccc(C2SCC(=O)N2NC(=O)Cn2cnc3scc(-c4cccs4)c3c2=O)c1OC (centres unmarked) ; what Average Weight of Animals in Grams after Days 10 value has been reported?
*A* 25.1

*Q* Suppose we examine the molecule "O=C(Cn1cnc2scc(-c3cccs3)c2c1=O)NN1C(=O)CSC1=Nc1ccccc1" ; what Average Weight of Animals in Grams after Days 10 value has been reported?
*A* 26.6

*Q* Suppose we examine the molecule "Nc1cc(O)cc(=O)n1NC(=O)Cn1cnc2scc(-c3cccs3)c2c1=O" ; what Average Weight of Animals in Grams after Days 10 value has been reported?
*A* 25.9

*Q* Suppose we examine the molecule "O=c1oc(Cn2cnc3scc(-c4cccs4)c3c2=O)nc2ccccc12" ; what Average Weight of Animals in Grams after Days 10 value has been reported?
*A* 22.7

*Q* Suppose we examine the molecule O=C(Cn1cnc2scc(-c3cccs3)c2c1=O)NN1C(=O)CSC1c1ccc(Cl)cc1 (centres unmarked) ; what Average Weight of Animals in Grams after Days 10 value has been reported?
*A* 24.0

*Q* Suppose we examine the molecule "NNC(=O)Cn1cnc2scc(-c3cccs3)c2c1=O" ; what Average Weight of Animals in Grams after Days 10 value has been reported?
*A* 23.9

*Q* Suppose we examine the molecule "COc1cccc(C=NNC(=O)Cn2cnc3scc(-c4cccs4)c3c2=O)c1OC" ; what Average Weight of Animals in Grams after Days 10 value has been reported?
*A* 23.5
